Test system: RXF 393 renal
METHOD_SUMMARY: NCI tumour cell line growth inhibition, 48 h; in the data active = GI50 below about 0.43 µM; inactive = the rest
The reply should name one outcome from active, inactive

Could you check what this test reported for C/C(=N\Nc1ccc2ccccc2n1)c1ccccn1 ?
active

// param item: O=C(C1CCCCC1)[C@@H]1[C@]2(C(=O)NC3CCCCC32)[C@@H]2CCCN2[C@@]12C(=O)NC1CCC(Cl)CC12 (stereo partly drawn) ; yields the recorded call
inactive

Which outcome did this test record for the compound Cn1c2c(cc(S(=O)(=O)c3ccccc3)c1=O)CCc1c-2cnn1-c1ccc(Cl)cc1 ?
inactive

Consider now this further compound.
# fetch the recorded call for C[C@]12CC[C@H]3[C@@H](CCC4=CC(=O)CC[C@@H]43)[C@@H]1CC[C@@H]2OC(=O)CCc1ccccc1 here
inactive
